test system: Haemophilus influenzae RD; test: MIC, standard broth micro-dilution assay, HFRD; assay type: cell-based
Quick list: minimal inhibitory concentration (MIC), HFRD per entry.
QUANTITY KIND: minimal inhibitory concentration (MIC), HFRD

COMPOUND | RECORDED RESULT
CC1OC(OC2c3ccc(c(Cl)c3)Oc3cc4cc(c3OC3OC(CO)C(O)C(O)C3OC3CC(C)(NCc5ccc(-c6ccccc6)cc5)C(O)C(C)O3)Oc3ccc(cc3Cl)C(O)C(NC(=O)C(CCCCNC(=O)OC(C)(C)C)NC(=O)OC(C)(C)C)C(=O)NC(CC(N)=O)C(=O)NC4C(=O)NC3C(=O)NC2C(=O)NC(C(=O)O)c2cc(O)cc(O)c2-c2cc3ccc2O)CC(C)(N)C1O (stereo not drawn) [Example 30] | >64
CC(C)CC(NCc1ccc(-c2ccccc2)cc1)C(=O)NC1C(=O)NC(CC(N)=O)C(=O)NC2C(=O)NC3C(=O)NC(C(=O)NC(C(=O)O)c4cc(O)cc(O)c4-c4cc3ccc4O)C(OC3CC(C)(N)C(O)C(C)O3)c3ccc(c(Cl)c3)Oc3cc2cc(c3OC2OC(CO)C(O)C(O)C2OC2CC(C)(N)C(O)C(C)O2)Oc2ccc(cc2Cl)C1O (stereo not drawn) | 64
CC(C)CC(NCc1ccc(-c2ccccc2)cc1)C(=O)NC1C(=O)NC(CC(N)=O)C(=O)NC2C(=O)NC3C(=O)NC(C(=O)NC(C(=O)O)c4cc(O)cc(O)c4-c4cc3ccc4O)C(OC3CC(C)(N)C(O)C(C)O3)c3ccc(c(Cl)c3)Oc3cc2cc(c3OC2OC(CO)C(O)C(O)C2OC2CC(C)(NCc3ccc(-c4ccccc4)cc3)C(O)C(C)O2)Oc2ccc(cc2Cl)C1O (stereo not drawn) | >64
